- Tested on: Raji
- protocol details: Antiproliferative activity against human Raji cells after 72 hrs by MTT assay
- Format: functional, cell-based
- experimental setup: raji
reported metric: pIC50
pIC50 is defined as minus the log10 of a concentration measured in mol/L.

INSERT INTO measurements (smiles_string, target_desc, value_observed) VALUES
  ('Cl.NC(=O)c1csc([C@@H]2O[C@H](CO)[C@@H](O)[C@H]2N)n1', 'Raji', 5.03);

Short answer for `NC(=O)c1csc([C@@H]2O[C@H](CO)[C@@H](O)[C@H]2N)n1` : pIC50 was 5.59

----------
- Test system: K562
- protocol details: Induction of cell cycle arrest in human K562 cells assessed as accumulation at G2/M phase after 72 hrs by propidium iodide staining-based flow cytometry (reference value: 15.31%)
- Assay type: functional
reported metric: Activity (%)
Write the number in % without appending the unit.

Worked examples follow.
INSERT INTO results (compound, reported_metric, value_observed) VALUES
  ('Cl.NC(=O)c1csc([C@@H]2O[C@H](CO)[C@@H](O)[C@H]2N)n1', 'Activity', 11.26),
  ('CC(=O)N[C@@H]1[C@H](O)[C@@H](CO)O[C@H]1c1nc(C(N)=O)cs1', 'Activity', 9.32),
  ('NC(=O)c1csc([C@@H]2O[C@H](CO)[C@@H](O)[C@H]2NC(=O)c2ccccc2)n1', 'Activity', 10.5),
  ('COc1cccc(C(=O)N[C@@H]2[C@H](O)[C@@H](CO)O[C@H]2c2nc(C(N)=O)cs2)c1', 'Activity', 12.04),
  ('[N-]=[N+]=N[C@@H]1[C@H](O)[C@@H](CO)O[C@H]1c1nc(C(N)=O)cs1', 'Activity', 11.82);

The value of Activity recorded for NC(=O)c1csc([C@@H]2O[C@H](CO)[C@@H](O)[C@H]2O)n1 [TIAZOFURIN] when tested on K562 reads 5.74

Param item: `NC(=O)c1csc([C@@H]2O[C@H](CO)[C@@H](O)[C@H]2N)n1` ; param system: K562; output Activity: 12.16
